Listed here: items and their measured log10 Kd.
Target: T1, human glycophorin A on human red blood cells or red blood cell membranes (human, UniProt P02724 20-150)
T1 construct: whole, on cells; also called hRBC; human RBC membranes
T1 sequence (looked up): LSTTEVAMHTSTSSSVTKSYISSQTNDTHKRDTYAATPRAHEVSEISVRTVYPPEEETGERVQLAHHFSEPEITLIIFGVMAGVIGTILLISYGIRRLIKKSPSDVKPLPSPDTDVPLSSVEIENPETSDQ
Experiment: SPR (Biacore), Fab over human RBC membranes, 1:1 fit;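 also: human RBC membrane preparations captured on an L1 sensor surface, with antibody passed over them as analyte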
Short version: log10 scale, Kd, nM.

Here are 4 binders together with their reported answers.
- TPP-5702, Hu6C12-24 Fab variant VL: (S24R, A26S, S49A, P54Q, F95Y) (Fab, V domains shown, Built on the parental Fab TPP-4935) VH: EVQLVQSGAEVKKPGASVKVSCKASGYTFTTYTIHWVRQAPGQGLEWIGYINPSSDYTRYNPKFKDRVTLTTDKSTSTAYMELRSLRSDDTAVYYCQTGTRDYWGQGTTVTVSS VL: DIQLTQSPSFLSASVGDRVTITCRASSSVSYIYWFQQKPGKAPKLLIYATSTLQSGVPSRFSGSGSGTEYTLTISSLQPEDFATYYCHQRNSFPYTFGQGTKLEIKR: 2.23
- TPP-5839, Hu6C12-24 Fab variant VL: (S24R, A26S, S49A, P54Q, F95Y); VH: (I48M, D66G, L70M, T72R) (Fab, V domains shown, Built on the parental Fab TPP-4935) VH: EVQLVQSGAEVKKPGASVKVSCKASGYTFTTYTIHWVRQAPGQGLEWMGYINPSSDYTRYNPKFKGRVTMTRDKSTSTAYMELRSLRSDDTAVYYCQTGTRDYWGQGTTVTVSS VL: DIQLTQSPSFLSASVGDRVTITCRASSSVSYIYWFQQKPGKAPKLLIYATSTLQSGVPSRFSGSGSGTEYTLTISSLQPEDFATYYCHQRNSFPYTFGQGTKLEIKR: 0.20
- TPP-5836, Hu6C12-24 Fab variant VL: (S24R, A26S, S49A, P54Q, F95Y); VH: (I48M, L70M, T72R) (Fab, V domains shown, Built on the parental Fab TPP-4935) VH: EVQLVQSGAEVKKPGASVKVSCKASGYTFTTYTIHWVRQAPGQGLEWMGYINPSSDYTRYNPKFKDRVTMTRDKSTSTAYMELRSLRSDDTAVYYCQTGTRDYWGQGTTVTVSS VL: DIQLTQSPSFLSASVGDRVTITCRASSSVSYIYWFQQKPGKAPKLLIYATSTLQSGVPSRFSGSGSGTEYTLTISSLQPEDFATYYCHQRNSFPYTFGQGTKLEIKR: 0.56
- TPP-5841, Hu6C12-24 Fab variant VL: (S24R, A26S, S49A, P54Q, F95Y); VH: (D66G, L70M) (Fab, V domains shown, Built on the parental Fab TPP-4935) VH: EVQLVQSGAEVKKPGASVKVSCKASGYTFTTYTIHWVRQAPGQGLEWIGYINPSSDYTRYNPKFKGRVTMTTDKSTSTAYMELRSLRSDDTAVYYCQTGTRDYWGQGTTVTVSS VL: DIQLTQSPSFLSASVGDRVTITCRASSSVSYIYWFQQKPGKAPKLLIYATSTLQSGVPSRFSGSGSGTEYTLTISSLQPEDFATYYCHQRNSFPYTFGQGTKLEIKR: 0.52

Shifting focus to the binder that follows.
Given the entry TPP-5842, Hu6C12-24 Fab variant VL: (S24R, A26S, S49A, P54Q, F95Y); VH: (D66G, L70M, T72R) (Fab, V domains shown, Built on the parental Fab TPP-4935) VH: EVQLVQSGAEVKKPGASVKVSCKASGYTFTTYTIHWVRQAPGQGLEWIGYINPSSDYTRYNPKFKGRVTMTRDKSTSTAYMELRSLRSDDTAVYYCQTGTRDYWGQGTTVTVSS VL: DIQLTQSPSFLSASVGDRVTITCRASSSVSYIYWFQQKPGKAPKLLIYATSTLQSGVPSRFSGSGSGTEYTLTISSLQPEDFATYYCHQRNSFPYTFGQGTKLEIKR , report its measured log10 Kd. 0.59

These data points were gathered from patent US20190359687A1.
